- STUDY_TARGET: FGFR1 (UniProt P11362)
- Sequence (P11362 whole entry, looked up): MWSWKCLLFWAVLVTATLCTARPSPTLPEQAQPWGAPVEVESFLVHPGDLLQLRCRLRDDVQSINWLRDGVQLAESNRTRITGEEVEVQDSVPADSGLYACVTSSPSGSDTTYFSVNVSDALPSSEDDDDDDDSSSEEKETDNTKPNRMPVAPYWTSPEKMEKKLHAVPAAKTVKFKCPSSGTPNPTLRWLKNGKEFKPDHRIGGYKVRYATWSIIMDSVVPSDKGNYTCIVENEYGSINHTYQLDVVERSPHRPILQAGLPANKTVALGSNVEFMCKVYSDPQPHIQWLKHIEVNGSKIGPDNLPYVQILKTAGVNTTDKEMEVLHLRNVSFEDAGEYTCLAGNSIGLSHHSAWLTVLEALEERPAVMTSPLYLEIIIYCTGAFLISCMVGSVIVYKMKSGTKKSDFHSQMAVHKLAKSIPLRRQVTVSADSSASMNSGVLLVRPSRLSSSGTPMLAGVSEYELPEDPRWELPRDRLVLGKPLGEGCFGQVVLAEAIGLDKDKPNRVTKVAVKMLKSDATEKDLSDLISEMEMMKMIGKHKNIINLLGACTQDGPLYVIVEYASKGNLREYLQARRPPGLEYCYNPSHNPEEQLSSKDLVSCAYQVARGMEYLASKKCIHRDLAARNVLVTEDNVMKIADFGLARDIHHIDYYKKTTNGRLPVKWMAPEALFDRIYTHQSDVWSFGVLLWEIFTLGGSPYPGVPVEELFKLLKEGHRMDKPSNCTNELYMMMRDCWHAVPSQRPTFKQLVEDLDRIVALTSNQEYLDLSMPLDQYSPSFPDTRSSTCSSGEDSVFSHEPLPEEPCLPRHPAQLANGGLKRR
- PROTOCOL: phosphorylation enrichment, bacterial display (enrichment ratio); higher = better substrate or ligand; peptides without Tyr show the background
Give phosphorylation enrichment for every item shown.
One number for each entry.

Fill in phosphorylation enrichment for each of the 6 sequences listed.
1. MPPHIYAITDT [MYH9_Y151]
2. KVKGEYDMTVP [AHNAK_Y964]
3. HNELFYEAAEH [VANGL1_Y345_E347A_YF]
4. ITLPIYTKGSE [ANK2_Y1455_E1458G]
5. TTKGSYSLFVR [HCK_Y180_S183Y_YF]
6. ESAAIYNPVIF [RHO_Y301_K296E_YF]

Result:
0.59
0.469
0.826
0.392
0.383
0.673

----------
- STUDY_TARGET: FGFR1 (UniProt P11362)
- PROTOCOL: phosphorylation enrichment, bacterial display (enrichment ratio); higher = better substrate or ligand; peptides without Tyr show the background
QUANTITY_KIND: phosphorylation enrichment

SEQUENCE_INPUT	STUDY_TARGET	phosphorylation enrichment
SHLEDYPFDAE [AKR1B10_Y310_N313D]	FGFR1 (UniProt P11362)	0.467
AKIDGYITSFR	FGFR1 (UniProt P11362)	0.513
TGDRPYVCPFD [YY1_Y383]	FGFR1 (UniProt P11362)	0.59
CNRADYSKLAP [GNE_Y22]	FGFR1 (UniProt P11362)	0.472
VIERSYTSADG [DHCR7_Y382_C380R]	FGFR1 (UniProt P11362)	0.414
LGMSQYFRLFN [CPT2_Y217_D213G]	FGFR1 (UniProt P11362)	0.704

Give measured phosphorylation enrichment for every item shown.
1. GMSQAYSSSQR [DES_Y5]
2. VFGVSYDEYRY [CFTR_Y512_I507V]
3. GFDHSYFFIAT [ESD_Y262_YF]
4. TSESSYYKSLN [NGEF_Y288_A286S]
5. EEGESYVCSSD [DCX_Y125]
6. GGPAGYLRRAS [PKLR_Y38]
7. GPQGVYSNKLV [PTPN14_Y506]

Result:
[0.32, 0.434, 7.11, 0.64, 0.676, 0.405, 0.472]

Below is a list of sequences. For each, state its recorded phosphorylation enrichment.
1. RFLERYIYNPE [HLA-DPB1_Y57_R61P]
2. AFPGEYIPTVF [RAC1_Y32]

Result:
1: 0.55; 2: 0.618

----------
- STUDY_TARGET: EPHB2 (UniProt P29323)
- Sequence (P29323 whole entry, looked up): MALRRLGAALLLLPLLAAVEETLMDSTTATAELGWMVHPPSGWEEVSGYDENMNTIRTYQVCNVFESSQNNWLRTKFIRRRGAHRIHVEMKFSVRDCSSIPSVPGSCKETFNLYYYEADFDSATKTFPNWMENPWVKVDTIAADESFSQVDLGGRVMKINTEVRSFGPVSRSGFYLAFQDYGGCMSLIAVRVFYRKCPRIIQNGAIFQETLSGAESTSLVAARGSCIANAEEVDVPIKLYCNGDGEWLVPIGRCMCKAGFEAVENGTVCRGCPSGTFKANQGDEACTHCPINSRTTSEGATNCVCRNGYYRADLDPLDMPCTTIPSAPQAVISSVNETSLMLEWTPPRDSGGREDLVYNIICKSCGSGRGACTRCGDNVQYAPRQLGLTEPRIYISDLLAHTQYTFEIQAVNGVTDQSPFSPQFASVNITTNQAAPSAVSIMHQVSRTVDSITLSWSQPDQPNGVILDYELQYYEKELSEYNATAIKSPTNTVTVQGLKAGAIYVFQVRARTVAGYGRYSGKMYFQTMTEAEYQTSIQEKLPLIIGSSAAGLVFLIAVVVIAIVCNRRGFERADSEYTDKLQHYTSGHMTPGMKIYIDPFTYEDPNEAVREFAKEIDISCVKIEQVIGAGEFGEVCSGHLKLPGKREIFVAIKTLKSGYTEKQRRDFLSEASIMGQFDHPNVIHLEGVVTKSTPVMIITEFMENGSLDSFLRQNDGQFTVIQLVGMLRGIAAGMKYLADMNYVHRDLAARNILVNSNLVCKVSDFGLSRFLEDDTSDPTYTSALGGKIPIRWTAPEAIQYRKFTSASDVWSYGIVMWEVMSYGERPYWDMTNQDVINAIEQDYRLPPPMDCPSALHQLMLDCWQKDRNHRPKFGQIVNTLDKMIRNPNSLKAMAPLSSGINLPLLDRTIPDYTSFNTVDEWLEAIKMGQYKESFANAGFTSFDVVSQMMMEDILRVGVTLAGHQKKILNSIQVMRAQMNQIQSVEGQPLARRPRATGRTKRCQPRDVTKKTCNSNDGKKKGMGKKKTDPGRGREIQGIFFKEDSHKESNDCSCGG
- PROTOCOL: phosphorylation enrichment, bacterial display (enrichment ratio); higher = better substrate or ligand; peptides without Tyr show the background
Kindly state phosphorylation enrichment for each of the entries shown.
Answers are plain numbers.

Lab note: each sequence below needs its phosphorylation enrichment filled in.
1. IALNSCHSRNC [IFNGR1_Y397_Y397C]
2. FLGRDYLETLM [DUS3L_Y610_YF]

Result:
1: 0.351; 2: 0.459

Below are some sequences; for each one, tell me its phosphorylation enrichment.
1. HNELFYEAAEH [VANGL1_Y345_E347A_YF]
2. VHVEVYDRPSP
3. FQQLFYLLQTN [IQGAP2_Y890_YF]

Result:
1: 0.842; 2: 0.668; 3: 0.796

Quick batch: phosphorylation enrichment for everything below.
1. TTPGPHRSIFF [MPG_Y71_Y71H_YF]
2. QMVDMYASSFM [AVPR2_Y124_G122D_YF]

Result:
[0.386, 0.805]

----------
- STUDY_TARGET: EPHB2 (UniProt P29323)
- PROTOCOL: phosphorylation enrichment, bacterial display (enrichment ratio); higher = better substrate or ligand; peptides without Tyr show the background
Assign T whenever phosphorylation enrichment does not fall below 0.6; assign F whenever it does.

SEQUENCE_INPUT	STUDY_TARGET	ANSWER_LABEL
STASGYSDVTD [DTX2_Y425]	EPHB2 (UniProt P29323)	F

Query: Check the entry ASMAKYFASGI [ACADSB_Y372_E376G_YF] : does phosphorylation enrichment equal or exceed 0.6?
Result: F

Query: // repeat for RFVTRSIFNRE [HLA-DQB1_Y62_Y62S_YF] and report
Result: T

Query: Would you mind doing FSQNIYIQNRN [PKP2_Y631_YF] as well?
Result: F

----------
- STUDY_TARGET: Grb2 SH2 (UniProt P62993)
- Sequence (P62993 whole entry, looked up): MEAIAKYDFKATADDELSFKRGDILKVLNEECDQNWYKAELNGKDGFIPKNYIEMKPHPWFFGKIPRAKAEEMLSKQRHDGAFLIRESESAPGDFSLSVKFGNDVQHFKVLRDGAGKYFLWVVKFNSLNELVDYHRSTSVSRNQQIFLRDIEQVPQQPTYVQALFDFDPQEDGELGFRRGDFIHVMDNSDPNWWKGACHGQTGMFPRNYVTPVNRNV
- PROTOCOL: SH2 binding enrichment of the phosphorylated peptide, bacterial display (enrichment ratio); higher = better substrate or ligand; peptides without Tyr show the background
QUANTITY_KIND: SH2 binding enrichment
Answers are plain numbers.

Known results for sequences:
SEQUENCE_INPUT	STUDY_TARGET	QUANTITY_KIND	ENDPOINT_VALUE
AGAKTYKMSMA [CPS1_Y309]	Grb2 SH2 (UniProt P62993)	SH2 binding enrichment	0.688
LEKISYVYMKR [SSX7_Y48]	Grb2 SH2 (UniProt P62993)	SH2 binding enrichment	1.03
KLIMEYLPFGS [JAK2_Y931_YF]	Grb2 SH2 (UniProt P62993)	SH2 binding enrichment	1
ALAHKHHGGGG [HBB_Y146_Y146H]	Grb2 SH2 (UniProt P62993)	SH2 binding enrichment	0.771
EKEQNYDLTEV [ECD_Y448]	Grb2 SH2 (UniProt P62993)	SH2 binding enrichment	0.962

Would you be so kind as to report SH2 binding enrichment for each listed record?
1. TVDASYFGGRG [ANTXR2_Y380_YF]
2. GGPAGYLRRAS [PKLR_Y38]
3. WIPIQYLIISE [NOG_Y222_P223L]
4. EAESWYQTKFE [KRT75_Y342_YF]
5. SYVVRYNQPRV [GRIN2D_Y736_M733V]

Result:
[1.01, 0.666, 1.21, 0.794, 1.05]

For every record below, what is its SH2 binding enrichment?
1. FEKNVYVDKNL [PTCHD3_Y688]
2. FDEFRYRSFIK [CFTR_Y517_V520F_YF]
3. FVPAAYVKKLD [SPTAN1_Y1020]
4. ETKTPYTVILI [SBDS_Y128_R126T]
5. VTQEQYELFCE [CBL_Y368_YF]
6. YSMGCYEIYLG [HMGCL_Y198_S201Y]
7. DDPRTYQKFGF [OAS1_Y362_R361T_YF]

Result:
1: 0.962; 2: 0.702; 3: 0.756; 4: 0.671; 5: 0.943; 6: 0.713; 7: 0.78

Need SH2 binding enrichment for each of these sequences.
1. ALEQKYWALGQ [MAP1A_Y1555]
2. GGCQEYTGAPY [NAXD_Y85]
3. INMKKYCKKDF [NTN1_Y490_YF]

Result:
[0.867, 0.935, 0.953]

Hey, can you go through the list below and give me SH2 binding enrichment for every item?
1. PTQLPYDHKWK [KIT_Y578_E583K]
2. NNHGNYIVRLG [ETFDH_Y172]
3. CASQLYPRHKH [DCTN4_Y263]

Result:
1. 0.756
2. 0.889
3. 0.975

----------
- STUDY_TARGET: FGFR3 (UniProt P22607)
- Sequence (P22607 whole entry, looked up): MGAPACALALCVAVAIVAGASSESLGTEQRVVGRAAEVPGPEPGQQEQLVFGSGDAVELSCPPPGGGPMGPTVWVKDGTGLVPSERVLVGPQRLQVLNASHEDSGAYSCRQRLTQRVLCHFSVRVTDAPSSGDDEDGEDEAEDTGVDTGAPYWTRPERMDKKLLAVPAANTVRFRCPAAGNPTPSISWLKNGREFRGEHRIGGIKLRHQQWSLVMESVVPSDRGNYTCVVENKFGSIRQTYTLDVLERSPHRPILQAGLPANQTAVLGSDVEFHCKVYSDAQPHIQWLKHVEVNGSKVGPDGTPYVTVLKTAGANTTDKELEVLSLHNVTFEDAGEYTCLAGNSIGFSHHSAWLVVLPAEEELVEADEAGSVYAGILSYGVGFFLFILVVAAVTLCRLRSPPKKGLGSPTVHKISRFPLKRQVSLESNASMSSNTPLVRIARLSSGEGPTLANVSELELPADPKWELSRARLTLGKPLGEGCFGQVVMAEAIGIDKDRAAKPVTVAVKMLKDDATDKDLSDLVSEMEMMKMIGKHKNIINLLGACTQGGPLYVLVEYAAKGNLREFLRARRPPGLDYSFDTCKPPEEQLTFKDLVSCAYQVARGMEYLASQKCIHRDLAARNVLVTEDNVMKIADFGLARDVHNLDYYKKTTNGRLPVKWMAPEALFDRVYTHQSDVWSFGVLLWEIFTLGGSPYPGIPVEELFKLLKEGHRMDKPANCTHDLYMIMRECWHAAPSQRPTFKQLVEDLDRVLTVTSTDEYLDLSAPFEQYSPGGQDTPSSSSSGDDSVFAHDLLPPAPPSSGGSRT
- PROTOCOL: phosphorylation enrichment, bacterial display (enrichment ratio); higher = better substrate or ligand; peptides without Tyr show the background
Classify by phosphorylation enrichment. Ranges: L (below 0.6), M (0.6 to below 0.7), H (0.7 or more)

// below: answered sequences
SEQUENCE_INPUT	STUDY_TARGET	ANSWER_LABEL
SLYPGYNFRYA [P2RX7_Y291]	FGFR3 (UniProt P22607)	L
QMVDMYASSFM [AVPR2_Y124_G122D_YF]	FGFR3 (UniProt P22607)	H

Query: Sort into band: HEGKIYEYNQV [ZNF665_Y162]
Result: H

Query: Further, for KKKKQYKDKYL [CASK_Y708] ?
Result: L

Query: Next sequence: TNGFTYGSSHQ [MANEA_Y331]
Result: L

Query: Consider next the sequence PPAPRYHHLAV [LZTR1_Y119_S122L] in the same way.
Result: H

Query: Input TQNGVYSAANY [DDX5_Y535]
Result: L

Query: Please give the result for ALCHFYKLNII [ETV6_Y402_R399C_YF] too.
Result: H

Query: Same question, AAGGRYYGLVG [HARS1_Y363_D364Y] this time
Result: L

----------
Exercise: state measured phosphorylation enrichment for each of the sequences provided.
- STUDY_TARGET: Fes (UniProt P07332)
- Sequence (P07332 whole entry, looked up): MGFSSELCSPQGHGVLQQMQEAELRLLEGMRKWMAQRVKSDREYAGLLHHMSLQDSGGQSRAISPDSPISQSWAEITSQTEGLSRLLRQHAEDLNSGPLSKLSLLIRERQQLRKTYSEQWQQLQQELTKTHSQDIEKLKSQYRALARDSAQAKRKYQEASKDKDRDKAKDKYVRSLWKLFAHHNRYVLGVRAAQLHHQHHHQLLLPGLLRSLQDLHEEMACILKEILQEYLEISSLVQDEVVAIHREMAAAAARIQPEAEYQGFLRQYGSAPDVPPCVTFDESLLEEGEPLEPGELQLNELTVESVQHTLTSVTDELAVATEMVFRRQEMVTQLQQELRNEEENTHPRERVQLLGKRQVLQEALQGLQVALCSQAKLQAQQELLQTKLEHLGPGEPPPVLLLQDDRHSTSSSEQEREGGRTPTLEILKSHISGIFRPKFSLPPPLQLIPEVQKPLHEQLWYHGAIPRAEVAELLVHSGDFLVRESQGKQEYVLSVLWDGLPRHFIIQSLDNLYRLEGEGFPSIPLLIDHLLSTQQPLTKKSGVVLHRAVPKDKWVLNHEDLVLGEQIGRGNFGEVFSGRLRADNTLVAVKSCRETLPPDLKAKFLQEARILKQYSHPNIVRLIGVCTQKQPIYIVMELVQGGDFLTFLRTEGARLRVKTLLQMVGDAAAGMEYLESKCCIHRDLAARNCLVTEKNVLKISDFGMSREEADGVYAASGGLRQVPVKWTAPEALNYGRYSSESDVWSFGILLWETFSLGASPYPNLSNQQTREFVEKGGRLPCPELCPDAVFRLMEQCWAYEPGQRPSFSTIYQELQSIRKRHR
- PROTOCOL: phosphorylation enrichment, bacterial display (enrichment ratio); higher = better substrate or ligand; peptides without Tyr show the background
Answers are plain numbers.

Hi team, please reply with phosphorylation enrichment for each item in this list.
1. HFVDEYDLTIE [KRAS_Y32_P34L]
2. GEFHVYRHLRW [PRKRIP1_Y82_R87W]
3. SYVVRYNQPRV [GRIN2D_Y736_M733V]

Result:
1: 2.16; 2: 1.08; 3: 0.891

Need phosphorylation enrichment for each of these sequences.
1. RLAKTYKTTLE [ALB_Y377_E378K]
2. AHEALYLEADL [CENPF_Y1920_E1915A]
3. QLHRKYCLSPR [HJURP_Y445_E444K]
4. SIKNKYVTALY [KCNH2_Y611_D609N]
5. LLGFLYFFVCS [SLC34A2_Y109]
6. LSSISYVGCSL [ADGRD1_Y571]

Result:
[0.632, 1.29, 0.852, 0.592, 3.17, 1.01]

# credit: the supplement of paper PMC10065799
